Biological target: V2 (antidiuretic) vasopressin receptor, kidney medulla crude membrane preparation (Rattus norvegicus)
Sequence (Q00788 whole entry): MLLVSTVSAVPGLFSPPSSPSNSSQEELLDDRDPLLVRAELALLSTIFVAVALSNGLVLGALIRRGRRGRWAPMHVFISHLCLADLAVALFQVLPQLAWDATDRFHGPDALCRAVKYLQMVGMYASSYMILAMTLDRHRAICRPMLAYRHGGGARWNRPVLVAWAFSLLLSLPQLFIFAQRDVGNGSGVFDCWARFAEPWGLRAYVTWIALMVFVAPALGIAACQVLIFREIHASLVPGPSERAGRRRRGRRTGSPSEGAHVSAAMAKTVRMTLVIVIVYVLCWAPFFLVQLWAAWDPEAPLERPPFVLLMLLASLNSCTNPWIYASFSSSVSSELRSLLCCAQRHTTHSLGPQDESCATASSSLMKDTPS
pIC50: −log10 of the molar value.
ATTRIBUTE_MEASURED: pIC50

- COMPOUND: "[C-]#[N+]C12C(C(C(=C)C)CC(Cl)C1(C)C=C)C21C(=O)Nc2ccccc21 (stereo not shown) [Formula IA, Hapalindolinone A]"
  ATTRIBUTE_MEASURED: "pIC50"
  MEASURED_RESULT: 4.43

* * *

Target: V1 (pressor) vasopressin receptor, rat liver crude membrane preparation (Rattus norvegicus, UniProt P30560)
Sequence (P30560 whole entry): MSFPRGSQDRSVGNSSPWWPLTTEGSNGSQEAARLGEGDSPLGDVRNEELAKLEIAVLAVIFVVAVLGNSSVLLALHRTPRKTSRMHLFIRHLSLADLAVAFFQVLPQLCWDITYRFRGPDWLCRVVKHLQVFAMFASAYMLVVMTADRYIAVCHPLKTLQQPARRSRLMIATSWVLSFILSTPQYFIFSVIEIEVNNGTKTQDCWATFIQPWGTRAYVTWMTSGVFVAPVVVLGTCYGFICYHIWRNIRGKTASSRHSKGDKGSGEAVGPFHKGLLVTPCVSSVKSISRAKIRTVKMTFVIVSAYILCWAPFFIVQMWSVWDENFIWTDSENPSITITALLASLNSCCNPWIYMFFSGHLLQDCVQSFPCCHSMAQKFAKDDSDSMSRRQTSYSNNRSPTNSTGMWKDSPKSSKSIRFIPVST
pIC50: −log10 of the molar value.
ATTRIBUTE_MEASURED: pIC50

- COMPOUND: "[C-]#[N+]C12C(C(C(=C)C)CC(Cl)C1(C)C=C)C21C(=O)Nc2ccccc21 (stereo not shown)"
  ATTRIBUTE_MEASURED: "pIC50"
  MEASURED_RESULT: "< 4.00"
